study-target: RORγ ligand binding domain (RORγ-LBD) (Homo sapiens)
Construct: His6 with thrombin site) (N); made in house; host or cells: E. coli BL21(DE3), modified pET21a vector
Sequence (P51449 263-518): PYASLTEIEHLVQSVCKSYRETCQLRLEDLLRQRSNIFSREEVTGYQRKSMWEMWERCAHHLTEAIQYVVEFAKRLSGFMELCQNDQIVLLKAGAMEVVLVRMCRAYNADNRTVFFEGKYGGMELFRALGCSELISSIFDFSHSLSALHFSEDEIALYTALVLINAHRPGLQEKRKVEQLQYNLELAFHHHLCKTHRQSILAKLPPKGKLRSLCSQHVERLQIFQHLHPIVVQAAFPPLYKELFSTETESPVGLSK
experiment-notes: Dual Fluorescence Energy Transfer (FRET) Assay
Assay type: biochemical
details: RORγ-LBD / SRC1(2) co-activator peptide interaction, read-out: mean pIC50 (converted)
Quick list: IC50 per entry.
experimental-endpoint: IC50

> print(dat)
                                   compound                              study.target  experimental.endpoint  endpoint.value
1  CCc1ccc(C)nc1N(CC(C)C)S(=O)(=O)c1ccc(OCc2c(C)noc2C)cc1 [Example 24]  RORγ ligand binding domain (RORγ-LBD) (Homo sapiens)                   IC50       ≤ 31.6 nM
2  CC(C)CN(c1ccc(C(C)C)cn1)S(=O)(=O)c1ccc(OCC2CCOCC2)cc1 [Example 33]  RORγ ligand binding domain (RORγ-LBD) (Homo sapiens)                   IC50       ≤ 31.6 nM
3  Cc1cnc(N(CC(C)C)S(=O)(=O)c2ccc(OCc3c(C)noc3C)cc2)c(C)c1 [Example 15]  RORγ ligand binding domain (RORγ-LBD) (Homo sapiens)                   IC50       ≤ 31.6 nM
